Data origin: patent US12486269B2

Target: COS-7/AMY3 (human calcitonin receptor (CTR) and RAMP3) (Homo sapiens, UniProt O60896+P30988)
Construct: expressed in transfected cells; host or cells: COS-7
Sequence (P30988 25-474): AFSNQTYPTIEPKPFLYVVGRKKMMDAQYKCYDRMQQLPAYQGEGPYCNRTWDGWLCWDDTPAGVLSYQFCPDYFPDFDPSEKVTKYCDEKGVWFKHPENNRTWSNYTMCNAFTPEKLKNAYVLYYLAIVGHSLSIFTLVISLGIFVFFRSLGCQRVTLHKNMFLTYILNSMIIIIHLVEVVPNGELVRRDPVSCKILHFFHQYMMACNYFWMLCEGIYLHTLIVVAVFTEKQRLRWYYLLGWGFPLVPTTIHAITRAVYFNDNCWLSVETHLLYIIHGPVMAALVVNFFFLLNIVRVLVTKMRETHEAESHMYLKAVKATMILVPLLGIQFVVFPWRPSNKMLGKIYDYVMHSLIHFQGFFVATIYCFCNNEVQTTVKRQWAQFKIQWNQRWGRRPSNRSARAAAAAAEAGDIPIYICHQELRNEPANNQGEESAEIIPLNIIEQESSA
Sequence (O60896 24-148): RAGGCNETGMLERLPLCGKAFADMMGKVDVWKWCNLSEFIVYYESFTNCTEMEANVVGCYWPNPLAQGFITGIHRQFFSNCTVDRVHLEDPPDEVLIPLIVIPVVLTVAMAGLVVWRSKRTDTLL
Assay: Amylin Receptor cAMP Assay II
Type: cell-based
Settings: values marked **: Amylin Receptor cAMP Assay II; COS-7/AMY3 cells, cAMP dynamic 2 kit, 30 min; read-out: Amylin Receptor cAMP Stimulation Activity: EC50
Readout Kind: EC50 (nM)

Consider the following illustrative entries.
{"columns": ["Molecule", "EC50 [nM]"],
 "data": [
  ["COc1cccc2c1CC[C@H]2Nc1nccc2cc(-c3c4c(nc(CCc5ccc(F)cc5)c3-c3n[nH]c(=O)o3)[C@@H]3CCCN3C4=O)sc12 [Compound 102]", 12.2],
  ["COc1cccc2c1CC[C@H]2Nc1nccc2cc(-c3c4c(nc(CCc5ccc(F)cc5)c3-c3noc(=O)[nH]3)[C@@H]3CCCN3C4=O)sc12 [Compound 104]", 25.5],
  ["COc1cccc2c1CC[C@H]2Nc1nccc2cc(-c3c4c(nc(C[C@@H]5CCc6cc(F)ccc65)c3-c3n[nH]c(=O)o3)[C@@H]3CCCN3C4=O)sc12 [Compound 250]", 102],
  ["COc1cc2c(cc1F)[C@H](Nc1nccc3cc(-c4c5c(nc(CCc6ccc(F)cc6)c4-c4n[nH]c(=O)o4)[C@@H]4CCCN4C5=O)sc13)CC2 [Compound 257]", 10.2],
  ["O=C1c2c(nc(CCc3ccc(F)cc3)c(-c3n[nH]c(=O)o3)c2-c2cc3ccnc(N[C@@H]4CCc5c4ccc(F)c5Cl)c3s2)[C@@H]2CCCN12 [Compound 168]", 15.3],
  ["COc1c(Cl)ccc2c1CC[C@H]2Nc1nccc2cc(-c3c4c(nc(CCc5ccc(F)cc5)c3-c3n[nH]c(=O)o3)[C@@H]3CCCN3C4=O)sc12 [Compound 173]", 16.9]
]}

(1) COc1cccc2c1CC(F)(F)[C@H]2Nc1nccc2cc(-c3c4c(nc(CCc5ccc(F)cc5)c3-c3n[nH]c(=O)o3)C35CC(CN3C4=O)C5)sc12 [Compound 281]
(2) CC(c1ccc(C#N)cn1)n1c(=O)oc2cc(-c3c4c(nc(CCc5ccc(F)cc5)c3-c3n[nH]c(=O)o3)[C@@H]3CCCN3C4=O)ccc21 (some centres unmarked) [Compound 160]
stdin: Could you kindly indicate whether 1 or 2 has the higher EC50 value? Write down the label of the entry you select.
stdout: 2
(2: 12.2 nM, 1: 0.733 nM)

(A) COc1c(F)c(F)cc2c1CC[C@H]2Nc1nc(C)cc2cc(-c3c4c(nc(CCc5ccc(F)cc5)c3-c3n[nH]c(=O)o3)[C@@H]3CCCN3C4=O)sc12 [Compound 299]
(B) Cc1cc2cc(-c3c4c(nc(CCc5ccc(F)cc5)c3-c3n[nH]c(=O)o3)C35CC(CN3C4=O)C5)sc2c(N[C@@H]2CCc3c(Cl)cncc32)n1 [Compound 265]
stdin: Lab note: check whether A or B has the lower measured EC50. Write down the label of the entry you select.
stdout: A
(A: 0.363 nM, B: 7.34 nM)

----------
Target: UniProt P30988
Test: Calcitonin Receptor (CTR) cAMP Assay
Conditions: COS7-human CTR Clone #2 stable cell line, cAMP dynamic 2 kit, 30 min; read-out: Calcitonin Receptor cAMP Stimulation Activity: EC50
pEC50: −log10 of the molar value.
Readout Kind: pEC50

Consider the following illustrative entries.
{"columns": ["Compound", "Subject Of Test", "Obs Value"],
 "data": [
  ["COc1cccc2c1CC[C@H]2Nc1nccc2cc(-c3c4c(nc(C[C@H]5COc6cc(F)ccc65)c3-c3n[nH]c(=O)o3)[C@@H]3CCCN3C4=O)sc12", "UniProt P30988", 9.15],
  ["CC(c1ccc(F)c(F)c1)n1ccc2cc(-c3c4c(nc(CCC5CCOCC5)c3-c3cc(=O)[nH]o3)[C@@H]3CCCN3C4=O)ccc21 (stereo partly drawn)", "UniProt P30988", 7.18],
  ["O=C1c2c(nc(CCc3ccc(F)cc3)c(-c3n[nH]c(=O)o3)c2-c2ccc3c(Cc4ccc(F)cc4F)nccc3c2)[C@@H]2CCCN12", "UniProt P30988", 7.56]
]}

(P) C[C@H](Nc1nccc2cc(-c3c4c(nc(CCc5ccc(F)cc5)c3-c3noc(=O)[nH]3)[C@@H]3CCCN3C4=O)sc12)c1ccc(F)c(F)c1
(Q) O=C1c2c(nc(CCc3ccc(F)cc3)c(-c3n[nH]c(=O)o3)c2-c2cc3cc(C(F)F)nc(N[C@@H]4CCOc5c(F)cc(F)cc54)c3s2)C23CC(CN12)C3
(R) O=C1c2c(nc(CCc3ccc(F)cc3)c(-c3n[nH]c(=O)o3)c2-c2cnc3c(ccn3Cc3ccc(F)cn3)c2)[C@@H]2CCCN12
(S) O=C1c2c(nc(CCc3ccc(F)cc3)c(-c3noc(=O)[nH]3)c2-c2ccc3nn(C4CCc5ccccc54)cc3c2)[C@@H]2CCCN12 (stereo partly drawn)
(T) O=C(NCc1ccc(F)c(F)c1)c1ccc(-c2c3c(nc(CCc4ccc(F)cc4)c2-c2cc(=O)[nH]o2)[C@@H]2CCCN2C3=O)s1
stdin: Rank order required: pEC50, descending. The response must list the labels following the requested ordering.
stdout: Q, T, R, P, S

----------
Molecular target: human calcitonin receptor (CTR) (Homo sapiens)
Assay: Calcitonin Receptor (CTR) cAMP Assay
Settings: COS7-human CTR Clone #2 stable cell line, cAMP dynamic 2 kit, 30 min; read-out: Calcitonin Receptor cAMP Stimulation Activity: EC50
pEC50: −log10 of the molar value.
Readout Kind: pEC50

{"columns": ["Molecule", "pEC50"],
 "data": [
  ["COc1cccc2c1CC[C@H]2Nc1nccc2cc(-c3c4c(nc(CCc5ccc(F)cc5)c3-c3n[nH]c(=O)o3)[C@@H]3CCCN3C4=O)sc12 [Compound 102]", 9.10],
  ["COc1c(F)ccc2c1CC[C@H]2Nc1nc(C)cc2cc(-c3c4c(nc(CCc5ccc(F)cc5)c3-c3n[nH]c(=O)o3)[C@@H]3COCCN3C4=O)sc12", 10.47],
  ["COc1c(F)ccc2c1CC[C@H]2Nc1nccc2cc(-c3c4c(nc(CCc5ccc(F)cc5)c3-c3n[nH]c(=O)o3)[C@@H]3COCCN3C4=O)sc12", 10.02],
  ["COc1c(F)ccc2c1CC(F)(F)[C@H]2Nc1nccc2cc(-c3c4c(nc(CCc5ccc(F)cc5)c3-c3n[nH]c(=O)o3)C35CC(CN3C4=O)C5)sc12", 10.72]
]}

(a) COc1c(F)ccc2c1CC(F)(F)[C@H]2Nc1nc(C)cc2cc(-c3c4c(nc(CCc5ccc(F)cc5)c3-c3n[nH]c(=O)o3)[C@@H]3CCCN3C4=O)sc12
(b) CC1(C)Oc2cc(-c3c4c(nc(CCc5ccc(F)cc5)c3-c3n[nH]c(=O)o3)[C@@H]3CCCN3C4=O)ccc2N(Cc2ccc(F)cn2)C1=O
stdin: Lab note: check whether a or b has the lower measured pEC50. Write down the label of the entry you select.
stdout: b
(b: 9.17, a: 10.47)

----------
Molecular target: COS-7/AMY3 (human calcitonin receptor (CTR) and RAMP3) (Homo sapiens, UniProt O60896+P30988)
Construct: expressed in transfected cells; host or cells: COS-7
Assay: Amylin Receptor cAMP Assay II
Type: cell-based
Conditions: values marked **: Amylin Receptor cAMP Assay II; COS-7/AMY3 cells, cAMP dynamic 2 kit, 30 min; read-out: Amylin Receptor cAMP Stimulation Activity: EC50
pEC50: −log10 of the molar value.
Readout Kind: pEC50

Consider the following illustrative entries.
{"columns": ["Compound", "pEC50"],
 "data": [
  ["O=C1c2c(nc(CCc3ccc(F)cc3)c(-c3noc(=O)[nH]3)c2-c2ccc3nn(C4CCc5ccccc54)cc3c2)[C@@H]2CCCN12 (stereo partly drawn)", 5.29],
  ["O=C1c2c(nc(CCc3ccc(F)cc3)c(-c3n[nH]c(=O)o3)c2-c2cc3ccnc(N[C@@H]4CCc5ccc(Cl)cc54)c3s2)C23CC(CN12)C3", 8.34],
  ["N#Cc1ccc(Cn2c(=O)oc3cc(-c4c5c(nc(CCc6ccc(F)cc6)c4-c4n[nH]c(=O)o4)[C@@H]4CCCN4C5=O)ccc32)nc1", 7.97],
  ["COc1c(F)ccc2c1CC[C@H]2Nc1nccc2cc(-c3c4c(nc(CCc5ccc(F)cc5)c3-c3n[nH]c(=O)o3)[C@@H]3COCCN3C4=O)sc12", 8.55]
]}

(I) COc1cccc2c1CC[C@H]2N1Cc2cc(-c3c4c(nc(CCc5ccc(F)cc5)c3-c3n[nH]c(=O)o3)C35CC(CN3C4=O)C5)ccc2C1=O
(II) COc1cccc2c1CC[C@H]2Nc1nccc2cc(-c3c(-c4n[nH]c(=O)o4)c(CCc4ccc(F)cc4)nc4c3C(=O)N3C[C@H]5C[C@@]43C5)sc12
stdin: Lab note: check whether I or II has the lower measured pEC50. Write down the label of the entry you select.
stdout: I
